Target: Mdm2 (construct limits not stated) (UniProt Q00987 2-125, limits assumed)
Sequence (Q00987 2-125 limits assumed): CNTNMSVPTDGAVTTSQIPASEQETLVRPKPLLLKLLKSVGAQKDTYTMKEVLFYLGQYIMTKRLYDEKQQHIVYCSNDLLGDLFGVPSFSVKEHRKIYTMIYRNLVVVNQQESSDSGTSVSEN
Test: method not given; affinity-matured Pep48T, estimated
Starred links: 1 amine or outer side, 2 acyl side, 3 side chain; linkers in the order of their positions; H or OH if unused. Positions of bridges follow the written chain, without caps; N, C: chain ends. No end group written: not given here. TBMB = c1c(C[*:1])cc(C[*:3])cc1C[*:2]
readout type: Kd

>  <binder>
SGCVRFGWTCPTVMCGG (linker 3-10-15 via TBMB; not fully specified (N-terminus, C-terminus)) [Pep48T (affinity-matured Pep48 derivative, TBMB conjugate)]

>  <result>
~100 nM

$$$$

Recorded values, source patent US8685890.
